Sequence of the target: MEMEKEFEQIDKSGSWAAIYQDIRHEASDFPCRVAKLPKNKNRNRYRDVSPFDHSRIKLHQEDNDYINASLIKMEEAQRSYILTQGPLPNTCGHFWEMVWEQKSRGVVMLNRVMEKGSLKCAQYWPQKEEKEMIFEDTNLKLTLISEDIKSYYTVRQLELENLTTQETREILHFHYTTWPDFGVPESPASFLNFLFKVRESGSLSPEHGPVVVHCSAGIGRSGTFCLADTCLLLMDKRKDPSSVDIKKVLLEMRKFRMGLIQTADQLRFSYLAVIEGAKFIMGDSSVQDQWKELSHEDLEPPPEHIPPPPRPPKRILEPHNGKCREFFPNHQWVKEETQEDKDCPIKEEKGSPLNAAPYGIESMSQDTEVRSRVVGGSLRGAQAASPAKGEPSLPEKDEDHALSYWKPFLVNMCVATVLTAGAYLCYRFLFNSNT
result type: Ki (nM)
Write the answer as a number in nM, unit excluded.

Exam item: Give the measured Ki of O=C(O)c1cccc(/C=C/c2ccc(OCc3cc(-c4ccc(Cl)c(Cl)c4)on3)cc2)c1 [Compound 29] .
Marked response: 780

* * *

Biological target: GST-PTP1B (Homo sapiens)
Sequence (P18031 1-435): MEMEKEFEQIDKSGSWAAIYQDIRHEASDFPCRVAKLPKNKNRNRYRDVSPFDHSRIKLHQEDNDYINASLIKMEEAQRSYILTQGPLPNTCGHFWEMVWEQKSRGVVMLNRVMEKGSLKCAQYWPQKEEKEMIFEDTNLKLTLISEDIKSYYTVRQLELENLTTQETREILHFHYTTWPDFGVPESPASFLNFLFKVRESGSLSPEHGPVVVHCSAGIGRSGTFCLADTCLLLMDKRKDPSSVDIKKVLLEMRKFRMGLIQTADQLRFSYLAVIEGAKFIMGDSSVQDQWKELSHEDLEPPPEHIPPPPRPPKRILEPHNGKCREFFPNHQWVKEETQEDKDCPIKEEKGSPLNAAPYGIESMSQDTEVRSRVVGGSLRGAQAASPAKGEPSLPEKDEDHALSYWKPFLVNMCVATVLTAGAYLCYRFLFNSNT
Assay: Colorimetric pNPP assay of inhibition against PTP1B
Assay type: biochemical
Settings: selectivity over TCPTP
result type: TCPTP/PTP1B, the ratio of IC50 of TCPTP and PTP1B
Output: the number by itself.

Sample records with TCPTP/PTP1B, the ratio of IC50 of TCPTP and PTP1B:
1. Cc1ccc(-c2cc(COc3ccc(/C=C/c4cccc(C(=O)O)c4)cc3)no2)cc1: 2.2
2. O=C(O)c1cccc(/C=C/c2ccc(OCc3cc(-c4ccc(F)cc4)on3)cc2)c1: 1.6
3. Cc1cccc(-c2cc(COc3ccc(/C=C/c4cccc(C(=O)O)c4)cc3)no2)c1: 5.1
4. O=C(O)c1cccc(/C=C/c2ccc(OCc3cc(-c4ccc(Cl)c(Cl)c4)on3)cc2)c1: 4.2
5. O=C(O)c1cccc(/C=C/c2ccc(OCc3cc(-c4ccc(F)c(F)c4)on3)cc2)c1: 4.9

Exam item: GST-PTP1B (Homo sapiens) / TCPTP/PTP1B, the ratio of IC50 of TCPTP and PTP1B / "COc1ccc(-c2cc(COc3ccc(/C=C/c4cccc(C(=O)O)c4)cc3)no2)cc1" : value?
Marked response: 3.6

Exam item: Try "O=C(O)c1cccc(/C=C/c2ccc(OCc3cc(-c4ccccc4)on3)cc2)c1" next.
Marked response: 1.5

Exam item: Try "O=C(O)c1cccc(/C=C/c2ccc(OCc3cc(-c4ccccc4Cl)on3)cc2)c1" next.
Marked response: 20.7

* * *

Target: GST-PTP1B (Homo sapiens, UniProt P18031)
Sequence (P18031 1-435): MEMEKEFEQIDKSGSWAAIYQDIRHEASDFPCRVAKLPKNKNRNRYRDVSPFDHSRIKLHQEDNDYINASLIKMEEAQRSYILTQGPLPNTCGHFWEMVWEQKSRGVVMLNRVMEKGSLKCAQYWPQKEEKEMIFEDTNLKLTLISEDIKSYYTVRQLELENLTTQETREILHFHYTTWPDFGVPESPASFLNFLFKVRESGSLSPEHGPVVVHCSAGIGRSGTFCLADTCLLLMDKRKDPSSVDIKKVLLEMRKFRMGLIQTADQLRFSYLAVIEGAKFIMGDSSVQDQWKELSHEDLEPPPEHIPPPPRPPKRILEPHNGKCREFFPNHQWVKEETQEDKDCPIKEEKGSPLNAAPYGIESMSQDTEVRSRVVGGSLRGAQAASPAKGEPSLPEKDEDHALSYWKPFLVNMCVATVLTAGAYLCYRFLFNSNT
Experiment: Colorimetric pNPP assay of inhibition against PTP1B
Format: biochemical
Settings: means ± SD of three replications; pNPP substrate, pH 6.5, 30 °C; read-out: IC50 against PTP1B (Table 1)
Threshold check on IC50: strictly below 20 µM is satisfied; on or above 20 µM is not satisfied.

Exam item: Criterion: IC50 strictly below 20 µM. Is it met by "O=C(O)c1cccc(/C=C/c2ccc(OCc3cc(-c4ccccc4)on3)cc2)c1" ?
Marked response: satisfied

Exam item: Try "Cc1onc(-c2ccccc2)c1COc1ccc(/C=C/c2cccc(C(=O)O)c2)cc1" next.
Marked response: satisfied

Exam item: Try "O=C(O)c1cccc(/C=C/c2ccc(OCc3cnoc3-c3ccccc3)cc2)c1" next.
Marked response: satisfied

Exam item: Try COC(=O)c1cccc(/C=C/c2ccc(OCc3cc(-c4ccccc4)on3)cc2)c1 [Compound 18d] next.
Marked response: not satisfied

Exam item: Try "O=C(O)c1cccc(/C=C/c2ccc(OCc3conc3-c3ccccc3)cc2)c1" next.
Marked response: not satisfied

* * *

Measured IC50 of individual entries
target: GST-PTP1B (Homo sapiens, UniProt P18031); assay: Colorimetric pNPP assay of inhibition against PTP1B; format: biochemical; details: means ± SD of three replications; pNPP substrate, pH 6.5, 30 °C; read-out: IC50 PTP1B (Table 2);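 also: colorimetric inhibition readout run in 96-well plates, with PTP1B and TCPTP both tested in the same assay format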

Sample records with IC50:
1. O=C(O)c1cccc(/C=C/c2ccc(OCc3cc(-c4cccc(F)c4)on3)cc2)c1: > 20 µM
2. O=C(O)c1cccc(/C=C/c2ccc(OCc3cc(-c4ccc(F)c(F)c4)on3)cc2)c1: 1.22 µM
3. Cc1ccc(-c2cc(COc3ccc(/C=C/c4cccc(C(=O)O)c4)cc3)no2)cc1: 3.56 µM
4. C[C@H](CCC(=O)O)[C@H]1CC[C@H]2[C@@H]3CC[C@@H]4C[C@H](O)CC[C@]4(C)[C@H]3CC[C@]12C [Lithocholic acid, lithocholic acid, reference compound]: 12.5 µM
5. Cc1cccc(-c2cc(COc3ccc(/C=C/c4cccc(C(=O)O)c4)cc3)no2)c1: 3.68 µM

Exam item: Give the measured IC50 of "O=C(O)c1cccc(/C=C/c2ccc(OCc3cc(-c4ccc(Cl)c(Cl)c4)on3)cc2)c1" .
Marked response: 0.91 µM

Exam item: Try "O=C(O)c1cccc(/C=C/c2ccc(OCc3cc(-c4cccc([N+](=O)[O-])c4)on3)cc2)c1" next.
Marked response: 2.05 µM

* * *

Measured TCPTP/PTP1B, the ratio of IC50 of TCPTP and PTP1B of individual entries
target: GST-PTP1B (Homo sapiens); experiment: Colorimetric pNPP assay of inhibition against PTP1B; assay type: biochemical; settings: selectivity over TCPTP
Output: the number by itself.

Sample records with TCPTP/PTP1B, the ratio of IC50 of TCPTP and PTP1B:
1. O=C(O)c1cccc(/C=C/c2ccc(OCc3cc(-c4cccc([N+](=O)[O-])c4)on3)cc2)c1: 6.5
2. O=C(O)c1cccc(/C=C/c2ccc(OCc3cc(-c4cccc(Cl)c4)on3)cc2)c1: 1.4

Shift focus to the following entry.
Exam item: Give the measured TCPTP/PTP1B, the ratio of IC50 of TCPTP and PTP1B of C[C@H](CCC(=O)O)[C@H]1CC[C@H]2[C@@H]3CC[C@@H]4C[C@H](O)CC[C@]4(C)[C@H]3CC[C@]12C [Lithocholic acid, lithocholic acid, reference compound] .
Marked response: 1.7

* * *

Target: GST-TCPTP (Homo sapiens)
Sequence (P17706 1-415): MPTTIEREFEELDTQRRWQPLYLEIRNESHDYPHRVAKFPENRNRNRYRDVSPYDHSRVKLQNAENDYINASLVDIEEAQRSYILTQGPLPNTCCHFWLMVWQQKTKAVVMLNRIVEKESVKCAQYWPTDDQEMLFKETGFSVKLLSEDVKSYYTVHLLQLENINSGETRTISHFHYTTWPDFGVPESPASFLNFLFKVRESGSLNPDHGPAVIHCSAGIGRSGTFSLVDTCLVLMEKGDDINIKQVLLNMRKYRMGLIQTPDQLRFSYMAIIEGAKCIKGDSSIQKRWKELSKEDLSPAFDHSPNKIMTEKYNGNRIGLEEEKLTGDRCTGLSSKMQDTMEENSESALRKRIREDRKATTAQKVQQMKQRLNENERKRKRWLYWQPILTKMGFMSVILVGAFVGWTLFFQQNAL
Threshold check on IC50: strictly below 20 µM is y; on or above 20 µM is n.

1) O=C(O)c1cccc(/C=C/c2ccc(OCc3cc(-c4ccc(Cl)c(Cl)c4)on3)cc2)c1 [Compound 29]: y
2) O=C(O)c1cccc(/C=C/c2ccc(OCc3cc(-c4cccc(Br)c4)on3)cc2)c1 [Compound 23]: n
3) C[C@H](CCC(=O)O)[C@H]1CC[C@H]2[C@@H]3CC[C@@H]4C[C@H](O)CC[C@]4(C)[C@H]3CC[C@]12C [Lithocholic acid, lithocholic acid, reference compound]: n
4) O=C(O)c1cccc(/C=C/c2ccc(OCc3cc(-c4ccccc4Cl)on3)cc2)c1 [Compound 19]: n

Exam item: Criterion: IC50 strictly below 20 µM. Is it met by O=C(O)c1cccc(/C=C/c2ccc(OCc3cc(-c4ccccc4)on3)cc2)c1 [Compound 18] ?
Marked response: y

Exam item: Try Cc1ccc(-c2cc(COc3ccc(/C=C/c4cccc(C(=O)O)c4)cc3)no2)cc1 [Compound 26] next.
Marked response: y
